System: rodent lifetime carcinogenesis bioassay, tumor incidence TD50
experimental.details: carcinogenic potency in animals, long-term in vivo studies, CPDB compilation (AID 1745844)
experimental.context: mouse; strain B6C3F1; males; by gavage; site: tongue; lesion: squamous-cell carcinoma; dosed 104 weeks; study length 104 weeks
property.name: TD50 (mg/kg/day)
Write the answer as a number in mg/kg/day, unit excluded.

Q: Fill in the blank: the reported TD50 of `C/C=C/C=C/C=O` is ____.
Result: 2080

====

Test system: rodent lifetime carcinogenesis bioassay, tumor incidence TD50
experimental.details: carcinogenic potency in animals, long-term in vivo studies, CPDB compilation (AID 1745844)
experimental.context: mouse; strain CDF1; females; in feed; site: forestomach; lesion: squamous-cell carcinoma; dosed 91 weeks; study length 91 weeks
property.name: TD50

Q: Quick check: TD50 of `Cc1cc2ncccc2c2nc(N)n(C)c12` ?
Result: 24.5 mg/kg/day

Value source: PubChem BioAssay AID1745844
